Test system: PCSK9
Assay type: binding, human
Conditions: spot phage ELISA signal-to-noise on PCSK9
Where no end group is shown, it is not given here.
Hi there, I'd appreciate the recorded S/N for every entry that follows.
One number for each entry.

// worked examples, S/N included
I am curious: what S/N value has been reported for GPTQSMYGMCGGIGYSGPTVCASGTTCQVLDPNTSQCLPGAS (disulfide (positions not given here)) [PCSK9 CBD 11] ?
6.9

I am curious: what S/N value has been reported for GCGWWYRQWFCKQDSDCLAGCVCLETPECG (disulfide (positions not given here)) [PCSK9 EET I-II 16] ?
15.7

I am curious: what S/N value has been reported for GPAHSLFGMCGGIDYSGPTVCASGTTCHVLNPTTSHCLPRAS (disulfide (positions not given here)) [PCSK9 CBD 8] ?
5.0

I am curious: what S/N value has been reported for GPTHSTYGQCGGIGYSGQSVCASGTTCQVLWAALSWCLPGAS (disulfide (positions not given here)) [PCSK9 CBD 12] ?
7.8

I am curious: what S/N value has been reported for GPTQSNYGQCGGIGYSGPTVCASGTTCQVLWPAMSWCLPGAS (disulfide (positions not given here)) [PCSK9 CBD 15] ?
14.0

// next item, S/N requested
I am curious: what S/N value has been reported for GCYHGYWYITWFCKQDSDCLAGCVCSQDEQCG (disulfide (positions not given here)) [PCSK9 EET I-II 14] ?
17.0

---

System: CD16A
Assay: Spot phage ELISA, CD16A
Type: binding, human
Settings: spot phage ELISA signal-to-noise on CD16A
Where no end group is shown, it is not given here.
measurement_type: S/N
Numbers only.

// worked examples, S/N included
I am curious: what S/N value has been reported for GCDYKLWRCKQDSDCLAGCVCEESQVCG (disulfide (positions not given here)) [CD16A EETI-II 8] ?
18.2

I am curious: what S/N value has been reported for GPTQSEGGSCGGIGYSGPTVCASGTTCQVLGPYISLCLPGAS (disulfide (positions not given here)) [CD16A CBD 2] ?
18.5

I am curious: what S/N value has been reported for GPTQSEGGQCGGIGYSGPTVCASGTTCQVLGPSWSFCLPGAS (disulfide (positions not given here)) [CD16A CBD 11] ?
4.9

I am curious: what S/N value has been reported for GCAKDPWGQPMSCKQDSDCLAGCVCGPNGFC (disulfide (positions not given here)) [CD16A EETI-II 27] ?
20.7

I am curious: what S/N value has been reported for GCDSLLQRCKQDSDCLAGCVCTEEHLCG (disulfide (positions not given here)) [CD16A EETI-II 11] ?
16.8

I have 2 sequences here; please give me S/N for each one.
1. GCGSKNGMNMCKQDSDCLAGCVCDPWGQCD (disulfide (positions not given here)) [CD16A EETI-II 31]
2. GCQWVQMTCKQDSDCLAGCVCWHSPWCG (disulfide (positions not given here)) [CD16A EETI-II 42]

1: 15.5; 2: 17.3

---

Tested on: CD16A
Test: Spot phage ELISA, CD16A
Format: binding, human
Settings: spot phage ELISA signal-to-noise on CD16A
Where no end group is shown, it is not given here.
Hi there, I'd appreciate the recorded S/N for every entry that follows.
Numbers only.

// worked examples, S/N included
I am curious: what S/N value has been reported for GCDDPWGMAMPCKQDSDCLAGCVCGPNGFCG (disulfide (positions not given here)) [CD16A EETI-II 17] ?
23.4

I am curious: what S/N value has been reported for GCDEILHKCKQDSDCLAGCVCDEQQLCG (disulfide (positions not given here)) [CD16A EETI-II 10] ?
17.2

I am curious: what S/N value has been reported for GCDEMLYRCKQDSDCLAGCVCQEQDVCG (disulfide (positions not given here)) [CD16A EETI-II 5] ?
20.0

I am curious: what S/N value has been reported for GCDYKLWRCKQDSDCLAGCVCEESQVCG (disulfide (positions not given here)) [CD16A EETI-II 3] ?
21.6

I am curious: what S/N value has been reported for GPTQSPXGSCGGIGYSGPTVCASGTTCQVLNPYLSQCLPGAS (disulfide) [CD16A CBD 4] ?
16.8

I have 2 sequences here; please give me S/N for each one.
1. GCQWQVEECKQDSDCLAGCVCWHSPYCG (disulfide (positions not given here)) [CD16A EETI-II 41]
2. GCDAILWTCKQDSDCLAGCVCSEEDLCG (disulfide (positions not given here)) [CD16A EETI-II 7]

[18.8, 18.7]

---

Hi there, I'd appreciate the recorded S/N for every entry that follows.
Test system: CD16A
Assay: Spot phage ELISA, CD16A
Format: binding, human
Details: spot phage ELISA signal-to-noise on CD16A
Where no end group is shown, it is not given here.

I have 5 sequences here; please give me S/N for each one.
1. GPTQSHGGSCGGIGYSGPTVCASGTTCQVLNPYLSLCLPGAS (disulfide (positions not given here)) [CD16A CBD 3]
2. GCQWIQQPCKQDSDCLAGCVCHESPWCG (disulfide (positions not given here)) [CD16A EETI-II 38]
3. GCADTPWQGRCKQDSDCLAGCVCGPNGFCG (disulfide (positions not given here)) [CD16A EETI-II 21]
4. GCWDPWGPMSCKQDSDCLAGCVCGPNGFCG (disulfide (positions not given here)) [CD16A EETI-II 18]
5. GCRGIDWWPCKQDSDCLTGCVCGPNGFCG (disulfide (positions not given here)) [CD16A EETI-II 24]

17.5
17.4
25.5
12.9
11.1

I have 4 sequences here; please give me S/N for each one.
1. GCWGPWGPEHCKQDSDCLAGCVCGPNGFCG (disulfide (positions not given here)) [CD16A EETI-II 26]
2. GCWGFPFPMDCKQDSDCLAGCVCFLWDKCG (disulfide (positions not given here)) [CD16A EETI-II 23]
3. GCADTPWKGKCKQDSDCLAGCVCGPNGFCG (disulfide (positions not given here)) [CD16A EETI-II 20]
4. GPTQSVWGSCGGIGYSGPTVCASGTTCQVLNPYMSACLPGAS (disulfide (positions not given here)) [CD16A CBD 1]

[18.3, 19.5, 15.6, 21.0]

---

System: EpCAM
Assay: Spot phage ELISA, EpCAM
Format: binding, human
Conditions: spot phage ELISA signal-to-noise on EpCAM
Where no end group is shown, it is not given here.
measurement_type: S/N

I am curious: what S/N value has been reported for GPTQSHYGQCGGMGYQGMIKCSGTTCQYVARQASQCLPGAS (disulfide (positions not given here)) [EpCAM CBD 47] ?
10.5

I am curious: what S/N value has been reported for GPTQSHYGQCGGTGYVGYTRCSGTTCQTVPAVMSQCLPGAS (disulfide (positions not given here)) [EpCAM CBD 16] ?
18.9

I am curious: what S/N value has been reported for GPTQSHYGQCGGKGYPGAIVCSGTTCQLVQSWRSQCLPGAS (disulfide (positions not given here)) [EpCAM CBD 63] ?
8.7

I am curious: what S/N value has been reported for GPTQSHYGQCGGRGYPGAMVCSGTTCQWHQPLRSQCLPGAS (disulfide (positions not given here)) [EpCAM CBD 60] ?
8.9

I am curious: what S/N value has been reported for GCPRILMRCKQDSDLSSWLCLCCYDSVC (disulfide (positions not given here)) [EpCAM EET I-II 37] ?
9.5

I have 3 sequences here; please give me S/N for each one.
1. GPTQSHYGQCGGHGYMGSIKCSGTTCQYVEIVPSQCLPGAS (disulfide (positions not given here)) [EpCAM CBD 66]
2. GPTQSHYGQCGGTGYPGAMVCSGTTCQLFELXVSQCLPGAS (disulfide) [EpCAM CBD 74]
3. GPTQSHYGQCGGLGYTGAIVCSGTTCQWKQLMRSQCLPGAS (disulfide (positions not given here)) [EpCAM CBD 24]

1. 8.6
2. 7.8
3. 16.9

I have 2 sequences here; please give me S/N for each one.
1. GPTQSHYGQCGGTGYHGVMLCSGTTCQLWAHPLSQCLPGAS (disulfide (positions not given here)) [EpCAM CBD 11]
2. GCPRILMRCKQDSDCQWFCG (disulfide (positions not given here)) [EpCAM EET I-II 12]

20.6
20.9

---

Test system: EpCAM
Experiment: Spot phage ELISA, EpCAM
Assay type: binding, human
Conditions: spot phage ELISA signal-to-noise on EpCAM
Where no end group is shown, it is not given here.
measurement_type: S/N
One number for each entry.

// worked examples, S/N included
I am curious: what S/N value has been reported for GPTQSHYGQCGGRGYVGAIACSGTTCQFTPPRSSQCLPGAS (disulfide (positions not given here)) [EpCAM CBD 87] ?
6.1

I am curious: what S/N value has been reported for GPTQSHYGQCGGPGYFGXVVCSGTTCQFAHIHRSQCLPGAS (disulfide) [EpCAM CBD 85] ?
6.6

I am curious: what S/N value has been reported for GCPRILMRCKQDSDCHWFCG (disulfide (positions not given here)) [EpCAM EET I-II 15] ?
20.7

I am curious: what S/N value has been reported for GPTQSLPGFCGGIGYVGGRYCSGTTCQLPEKLKSQCLPGAS (disulfide (positions not given here)) [EpCAM CBD 1] ?
26.7

I am curious: what S/N value has been reported for GPTQSHYGQCGGNGYMGVISCSGTTCQEIQMQRSQCLPGAS (disulfide (positions not given here)) [EpCAM CBD 90] ?
4.8

I am curious: what S/N value has been reported for GPTQSHYGQCGGGGYPGAIMCSGTTCQFVMAHKSQCLPGAS (disulfide (positions not given here)) [EpCAM CBD 77] ?
7.5

I am curious: what S/N value has been reported for GCPRILMRCKQDSDCHWVCG (disulfide (positions not given here)) [EpCAM EET I-II 39] ?
6.6

I am curious: what S/N value has been reported for GPTQSHYGQCGGQGYYGAIMCSGTTCQWEPARKSQCLPGAS (disulfide (positions not given here)) [EpCAM CBD 31] ?
15.3

I have 3 sequences here; please give me S/N for each one.
1. GCPRILMRCKQDSDCHPVCG (disulfide (positions not given here)) [EpCAM EET I-II 20]
2. GPTQSHYGQCGGRGYPGFIRCSGTTCQFVQSVQSQCLPGAS (disulfide (positions not given here)) [EpCAM CBD 78]
3. GPTQSHYGQCGGHGYVGMIACSGTTCQYLQKVPSQCLPGAS (disulfide (positions not given here)) [EpCAM CBD 13]

19.5
7.4
19.5
